For each of the molecules below, state its inhibition.
target: Aurora kinase A (Homo sapiens) (UniProt O14965); details: at 0.1 µM;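 further: each reported value is a mean percent inhibition of Aurora-A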
Sequence (O14965 whole entry): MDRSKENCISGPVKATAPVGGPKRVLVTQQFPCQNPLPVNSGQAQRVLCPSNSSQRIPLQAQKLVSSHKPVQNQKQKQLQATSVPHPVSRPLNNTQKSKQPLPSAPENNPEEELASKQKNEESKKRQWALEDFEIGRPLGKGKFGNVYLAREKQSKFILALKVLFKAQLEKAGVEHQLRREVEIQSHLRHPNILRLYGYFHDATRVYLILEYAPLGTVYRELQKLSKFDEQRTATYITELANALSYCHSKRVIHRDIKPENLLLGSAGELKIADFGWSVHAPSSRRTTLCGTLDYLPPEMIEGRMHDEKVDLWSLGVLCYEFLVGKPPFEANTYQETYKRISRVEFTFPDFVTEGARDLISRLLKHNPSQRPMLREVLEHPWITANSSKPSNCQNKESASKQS
Report the figure in % without appending any unit label.

**Q:** Could you share which inhibition value was measured for Nc1ncnc2occ(-c3ccc(NC(=O)Nc4cc(C(F)(F)F)cc(C(F)(F)F)c4)cc3)c12 ?
**A:** 2.66

**Q:** Follow-up item: COc1ccc(COc2ccc(Cc3cnc(N)nc3N)cc2OC)cc1
**A:** 4.1

**Q:** Same question, COc1cccc(-n2ncc3c(N/N=C/c4cccc(F)c4)ncnc32)c1 this time
**A:** -2.23

**Q:** Another molecule to check: Cc1ccc(NC(=O)c2ccnc(N3CCCC3)c2)cc1-c1ccc(C(=O)NCC2CC2)cc1
**A:** 0.15

**Q:** Query COC(=O)Nc1nc2cc(Oc3cccc(NC(=O)Nc4cc(C(F)(F)F)ccc4F)c3)ccc2[nH]1 next
**A:** 1.04

**Q:** Now consider CC1=C(C(=O)Nc2ccc3[nH]ncc3c2)C(c2ccc3ccccc3c2)CC(=O)N1 (centres undefined) .
**A:** 7.34

**Q:** Request: Fc1cccc(COc2ccc(Nc3ncnc4cc(-c5ccc[nH]5)sc34)cc2Cl)c1
**A:** -2.74

**Q:** Also need NS(=O)(=O)c1cccc(-c2ccc3c(NC(=O)C4CC4)n[nH]c3c2)c1 , thanks.
**A:** -1.3

**Q:** What do you get for CCN1CCC(CC(=O)Nc2n[nH]c3nc(-c4cccs4)c(Br)cc23)CC1 ?
**A:** -2.72

====

molecular target: Serine/threonine-protein kinase Nek7 (Homo sapiens); conditions: at 0.1 µM;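 further: figures are averaged percent inhibition of NEK7 kinase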
Task for the reader: assign each of the following compounds its reported inhibition.
// note: answer is a bare numeric in %

**Q:** Find the recorded inhibition belonging to COc1ccc(COc2ccc(Cc3cnc(N)nc3N)cc2OC)cc1 and report it.
**A:** 2.81

**Q:** Then what about the compound c1cnn2ncc(-c3ccnc(Nc4ccc5c(c4)OCCO5)n3)c2c1 ?
**A:** 3.53

**Q:** Proceed to CCCN1CCC=C(c2ccc(Nc3nc(Nc4ccccc4C(N)=O)c4cc[nH]c4n3)c(C)c2)C1
**A:** 4.64

**Q:** Param item: NC(=O)c1cccc(Nc2nccc(Nc3cccc4[nH]ncc34)n2)c1
**A:** -1.67

**Q:** Same for COc1cccc(-n2ncc3c(N/N=C/c4cccc(F)c4)ncnc32)c1
**A:** 4.53

**Q:** Same question, CCn1c(-c2nonc2N)nc2cncc(C(=O)N3CC[C@H](N)C3)c21 this time
**A:** 6.16

**Q:** NC(=O)c1ccc(-c2nc(-c3ccccn3)c(-c3ccc4c(c3)OCO4)[nH]2)cc1 , same question.
**A:** 2.26

**Q:** COc1cc2ncn(-c3cc(O[C@@H](C)c4ccccc4Cl)c(C(N)=O)s3)c2cc1OC ?
**A:** 3.47

**Q:** Let us now turn to Cc1cc(O)cc(C)c1/C=C/c1cncc(-c2nn[nH]n2)c1
**A:** 4.96

**Q:** What do you have for Cc1ccc(C(=O)NC2CCCCC2)cc1-c1ccc(C(=O)NCC2CC2)cc1 ?
**A:** 4.39

**Q:** Please do the same for COc1cc2ncn(-c3cc(OCc4ccccc4Cl)c(C(N)=O)s3)c2cc1OC as well.
**A:** 4.31

**Q:** Another compound: CS(=O)(=O)CCNCc1nc(-c2ccc3ncnc(Nc4ccc(F)c(Cl)c4)c3c2)cs1
**A:** -1.48

**Q:** Check COc1ccccc1Nc1ncc(-c2ccccc2)o1 too.
**A:** 2.39

====

molecular target: Tyrosine-protein kinase ZAP-70 (Homo sapiens) (UniProt P43403); conditions: at 1 µM
Sequence (P43403 whole entry): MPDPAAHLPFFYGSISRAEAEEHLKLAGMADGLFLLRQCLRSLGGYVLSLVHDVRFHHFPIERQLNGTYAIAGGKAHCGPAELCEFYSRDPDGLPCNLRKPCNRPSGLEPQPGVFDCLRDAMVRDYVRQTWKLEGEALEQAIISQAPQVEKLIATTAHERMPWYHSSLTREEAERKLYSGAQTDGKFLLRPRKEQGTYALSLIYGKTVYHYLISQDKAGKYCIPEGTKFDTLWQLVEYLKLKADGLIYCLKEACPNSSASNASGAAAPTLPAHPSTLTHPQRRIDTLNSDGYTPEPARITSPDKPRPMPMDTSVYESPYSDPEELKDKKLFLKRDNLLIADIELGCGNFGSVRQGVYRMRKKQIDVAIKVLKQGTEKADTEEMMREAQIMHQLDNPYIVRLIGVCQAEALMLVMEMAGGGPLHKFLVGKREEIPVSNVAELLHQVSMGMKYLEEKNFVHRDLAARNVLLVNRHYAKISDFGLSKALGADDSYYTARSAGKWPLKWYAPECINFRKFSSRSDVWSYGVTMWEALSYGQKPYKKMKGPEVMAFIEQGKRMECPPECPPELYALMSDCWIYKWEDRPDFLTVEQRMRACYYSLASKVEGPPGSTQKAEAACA
Description: GSK_PKIS: ZAP70 mean inhibition at 1 uM [Nanosyn]
measured.quantity: inhibition (%)
Numbers only here, please. The scale is %.

**Q:** Fill in: inhibition of CC1=C(C(=O)Nc2ccc3[nH]ncc3c2)C(c2ccc(F)cc2)NC(=O)N1 (centres undefined) is ___
**A:** 1.91

**Q:** # repeat for CCCN1CCC(Oc2cc(Nc3nc(Nc4cccc(F)c4C(N)=O)c4cc[nH]c4n3)c(OC)cc2Cl)CC1
**A:** 0.24

**Q:** Further, for CCn1c(-c2nonc2N)nc2ccncc21 ?
**A:** 3.68

**Q:** Another compound to look at: CCc1cccc(NC(=O)Nc2ccc(Oc3ccc4nc(NC(=O)OC)[nH]c4c3)cc2)c1
**A:** -1.32

**Q:** Queued: O=C(Nc1n[nH]c2nc(-c3ccco3)c(Br)cc12)C1CC1
**A:** 3.08

**Q:** Cool, now COC(=O)Nc1nc2cc(Oc3ccc(NC(=O)Nc4cccc(C(=O)O)c4)cc3)ccc2[nH]1
**A:** -4.2

**Q:** What would you report for COC(=O)Nc1nc2cc(Oc3cccc(NC(=O)Nc4cc(C(F)(F)F)ccc4F)c3)ccc2[nH]1 ?
**A:** 1.74

**Q:** Could you do the same for O=C1Nc2ccc(C(=O)c3ccco3)cc2C1=Cc1cc(Cl)c(O)c(Cl)c1 , please?
**A:** 3.97

**Q:** Further, for NC(=O)c1cccc(Nc2nccc(Nc3cccc4[nH]ncc34)n2)c1 ?
**A:** 4.64

====

Target: cGMP-dependent protein kinase 2 (Homo sapiens) (UniProt Q13237);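 further: reported figure is a mean inhibition value against PRKG2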
Sequence (whole entry): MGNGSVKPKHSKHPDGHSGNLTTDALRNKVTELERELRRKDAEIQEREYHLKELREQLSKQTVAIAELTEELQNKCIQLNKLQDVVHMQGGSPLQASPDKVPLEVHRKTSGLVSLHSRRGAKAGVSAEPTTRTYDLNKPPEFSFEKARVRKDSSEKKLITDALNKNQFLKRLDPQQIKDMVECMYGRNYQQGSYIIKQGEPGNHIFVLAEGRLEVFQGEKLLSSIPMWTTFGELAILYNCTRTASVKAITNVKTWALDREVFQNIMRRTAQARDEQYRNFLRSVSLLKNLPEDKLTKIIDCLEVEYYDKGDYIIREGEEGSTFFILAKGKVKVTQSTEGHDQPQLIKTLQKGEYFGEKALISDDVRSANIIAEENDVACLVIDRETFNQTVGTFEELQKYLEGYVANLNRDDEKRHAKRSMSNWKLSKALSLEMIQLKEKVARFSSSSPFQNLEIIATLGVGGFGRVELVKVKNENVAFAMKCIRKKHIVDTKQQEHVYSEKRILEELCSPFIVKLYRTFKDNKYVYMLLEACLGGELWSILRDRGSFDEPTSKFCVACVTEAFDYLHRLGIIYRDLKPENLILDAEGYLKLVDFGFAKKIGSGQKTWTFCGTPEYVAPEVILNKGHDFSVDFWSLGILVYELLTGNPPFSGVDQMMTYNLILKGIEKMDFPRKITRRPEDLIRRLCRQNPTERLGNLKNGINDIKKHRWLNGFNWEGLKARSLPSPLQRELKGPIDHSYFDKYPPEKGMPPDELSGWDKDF
Settings: at 0.1 µM
measured.quantity: inhibition (%)
Respond with the bare value in %.

**Q:** // returns reported inhibition for input CNC(=O)c1cncc(/C=C/c2c(Cl)cccc2Cl)c1
**A:** 1.23

**Q:** Can you check NC(=O)c1cccc(Nc2nccc(Nc3cccc4[nH]ncc34)n2)c1 next?
**A:** 0.86

**Q:** Another compound: COc1cc(C)c(NC(=O)CN(C)C)cc1Nc1nc(Nc2cccc(F)c2C(N)=O)c2cc[nH]c2n1
**A:** 1.95

====

biological target: Hepatocyte growth factor receptor (Homo sapiens) (UniProt P08581); conditions: at 0.1 µM
Sequence (P08581 whole entry): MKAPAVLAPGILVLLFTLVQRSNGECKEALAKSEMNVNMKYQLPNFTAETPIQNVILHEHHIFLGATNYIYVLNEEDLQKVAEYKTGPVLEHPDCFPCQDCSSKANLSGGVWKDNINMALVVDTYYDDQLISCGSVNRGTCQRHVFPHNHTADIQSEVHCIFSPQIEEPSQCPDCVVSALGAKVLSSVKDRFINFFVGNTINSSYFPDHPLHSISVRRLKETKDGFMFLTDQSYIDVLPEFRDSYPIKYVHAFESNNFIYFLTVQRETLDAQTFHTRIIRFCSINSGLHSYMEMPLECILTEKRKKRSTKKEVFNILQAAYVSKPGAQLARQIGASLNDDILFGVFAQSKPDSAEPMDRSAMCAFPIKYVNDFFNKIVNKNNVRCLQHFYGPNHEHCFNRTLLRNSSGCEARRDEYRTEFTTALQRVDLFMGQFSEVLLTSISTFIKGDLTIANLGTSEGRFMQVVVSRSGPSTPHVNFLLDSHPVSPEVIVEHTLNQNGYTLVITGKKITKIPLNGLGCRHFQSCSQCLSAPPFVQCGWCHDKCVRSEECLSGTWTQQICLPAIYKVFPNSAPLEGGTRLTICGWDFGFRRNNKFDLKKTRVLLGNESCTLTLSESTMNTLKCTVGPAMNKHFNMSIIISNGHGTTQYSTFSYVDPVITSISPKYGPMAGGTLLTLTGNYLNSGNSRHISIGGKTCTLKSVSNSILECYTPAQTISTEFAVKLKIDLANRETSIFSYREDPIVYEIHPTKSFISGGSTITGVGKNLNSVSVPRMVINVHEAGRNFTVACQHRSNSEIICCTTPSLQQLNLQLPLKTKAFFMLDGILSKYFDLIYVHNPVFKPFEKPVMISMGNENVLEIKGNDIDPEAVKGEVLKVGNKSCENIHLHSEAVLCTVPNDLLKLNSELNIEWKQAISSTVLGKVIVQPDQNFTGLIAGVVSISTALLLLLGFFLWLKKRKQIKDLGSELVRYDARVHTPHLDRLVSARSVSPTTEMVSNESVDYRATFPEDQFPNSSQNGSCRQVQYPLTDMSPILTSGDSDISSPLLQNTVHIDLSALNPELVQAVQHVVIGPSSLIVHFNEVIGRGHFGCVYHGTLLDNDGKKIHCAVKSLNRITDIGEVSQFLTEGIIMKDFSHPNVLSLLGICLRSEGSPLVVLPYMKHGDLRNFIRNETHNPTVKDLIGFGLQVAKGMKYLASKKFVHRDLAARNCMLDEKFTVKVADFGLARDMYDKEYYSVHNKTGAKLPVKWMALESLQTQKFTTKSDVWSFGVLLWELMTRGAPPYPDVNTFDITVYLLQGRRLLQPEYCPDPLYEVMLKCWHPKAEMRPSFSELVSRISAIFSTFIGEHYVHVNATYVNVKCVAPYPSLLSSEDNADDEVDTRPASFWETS
Provide the recorded inhibition for the entries that follow.
Write the answer as a number in %, unit excluded.

**Q:** Please state recorded inhibition (tested on Hepatocyte growth factor receptor (Homo sapiens) (UniProt P08581)) of Cc1ccc(C(=O)NC2CCCCC2)cc1-c1ccc(C(=O)NCC2CC2)cc1;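 further: reported values are means of MET inhibition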
**A:** 4.53

**Q:** Could you do the same for O=C1NC(=O)C(c2ccc(Cl)cc2)=C1Nc1ccc(Cl)c(C(=O)O)c1 , please?
**A:** -1.14

**Q:** Item: CCn1c(-c2nonc2N)nc2c(C#CC(C)(C)O)nc(CN3CCCC3)cc21
**A:** 5.85

**Q:** And O=C1NC(=O)C(N2CCc3ccccc32)=C1c1ccc(Cl)cc1 ?
**A:** -1.68

**Q:** Then this compound: Cc1ccc(NC(=O)c2ccnc(N3CCCC3)c2)cc1-c1ccc(C(=O)NCC2CC2)cc1
**A:** 9.41

**Q:** Now give it for NC(=O)c1cccc(Nc2nccc(Nc3cccc4[nH]ncc34)n2)c1 too.
**A:** -1.63

**Q:** Now try COc1cc2ncn(-c3cc(O[C@@H](C)c4ccccc4Cl)c(C(N)=O)s3)c2cc1OC .
**A:** 4.76

**Q:** How about this compound: CCc1cccc(NC(=O)Nc2ccc(Oc3ccc4nc(NC(=O)OC)[nH]c4c3)cc2)c1
**A:** 15.7

**Q:** Could you do the same for COc1ccc(COc2ccc(Cc3cnc(N)nc3N)cc2OC)cc1 , please?
**A:** 2.14

**Q:** Cool, now CCn1c(-c2nonc2N)nc2cncc(C(=O)N3CC[C@H](N)C3)c21
**A:** 5.74

**Q:** Param item: COc1ccc(-c2ccncc2)cc1C(N)=O
**A:** 3.93

**Q:** Same read-out for COc1ccc(-c2coc3ncnc(N)c23)cc1 ?
**A:** 10

**Q:** Also check CCCN1CCC(Oc2cc(Nc3nc(Nc4cccc(F)c4C(N)=O)c4cc[nH]c4n3)c(OC)cc2Cl)CC1
**A:** -1.41

**Q:** CCn1c(-c2nonc2N)nc2cncc(C(=O)N3CCNCC3)c21 , same question.
**A:** 2.94

**Q:** Item: CCN1CCC(CC(=O)Nc2n[nH]c3nc(-c4cccs4)c(Br)cc23)CC1
**A:** -0.73

**Q:** Now try COc1ccc2cc(-c3c(-c4ccncc4)nc(-c4ccc([S+](C)[O-])cc4)n3C)ccc2c1 (configuration not stated) .
**A:** 4.07

**Q:** What would you report for Cc1cc(O)cc(C)c1/C=C/c1cncc(-c2nn[nH]n2)c1 ?
**A:** 3.29
